Assignment: determine reported pIC50 for the given compounds.
Target: uPAR-expressing HEC-265 human endometrial adenocarcinoma cells (Homo sapiens, UniProt Q03405)
Sequence (Q03405 23-335): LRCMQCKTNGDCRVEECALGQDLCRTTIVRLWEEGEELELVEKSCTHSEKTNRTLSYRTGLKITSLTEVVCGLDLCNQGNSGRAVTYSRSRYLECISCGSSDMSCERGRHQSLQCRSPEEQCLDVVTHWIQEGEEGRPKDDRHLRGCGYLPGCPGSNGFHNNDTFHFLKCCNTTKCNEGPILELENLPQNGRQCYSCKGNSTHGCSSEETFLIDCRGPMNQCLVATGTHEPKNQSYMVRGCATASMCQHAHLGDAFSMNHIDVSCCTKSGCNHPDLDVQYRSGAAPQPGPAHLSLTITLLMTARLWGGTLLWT
pIC50: −log10 of the molar value. *1 amine or outer side, *2 acyl side, *3 side chain or, on linkers, in order; H or OH if unused. Where a SMILES comes first, the peptide text is derived from it. Bridges are numbered along the chain shown (N, C = ends). [ ]: non-standard residue; d: D form. The star is where a group is joined. DOTA = O=C(O)CN1CCN(CC(=O)O)CCN(CC(=O)*)CCN(CC(=O)O)CC1; Pro(trans-4-F) = O=C(O)[C@@H]1C[C@@H](F)CN1; 3Pal = N[C@@H](Cc1cccnc1)C(=O)O; Pentanoyl(4-Me) = CC(C)CCC(=O)*; X1 = O=C(CN1CCN([*:1])CC1)[*:2]; Cit = NC(=O)NCCC[C@H](N)C(=O)O; Nle = CCCC[C@H](N)C(=O)O; Nva = CCC[C@H](N)C(=O)O; Pentanoyl = CCCCC(=O)*

Query: What pIC50 value was documented for this compound, CCCCC(=O)N[C@H]1CSSC[C@@H](C(N)=O)NC(=O)[C@H](CCC)NC(=O)[C@H]([C@@H](C)CC)NC(=O)CN2CCN(CC2)C(=O)[C@H](Cc2ccccc2)NC(=O)[C@H](Cc2ccc(O)cc2)NC(=O)[C@H](CCC(N)=O)NC(=O)[C@H](CCCNC(=N)N)NC1=O [UPAR-271] (Pentanoyl-CRQYF[X1]I[Nva]C-NH2; disulfide 1-9) ?
Response: ≤ 6.90

Query: What pIC50 value was documented for this compound, CCCC[C@@H]1NC(=O)[C@H](CCCNC(=N)N)NC(=O)[C@@H](NC(=O)[C@@H](CC(C)C)NC(=O)[C@H](CC(=O)O)NC(C)=O)CSSC[C@@H](C(N)=O)NC(=O)[C@H](CC(C)C)NC(=O)[C@H]([C@@H](C)CC)NC(=O)[C@H](C)NC(=O)[C@@H]2CCCN2C(=O)[C@H](Cc2ccccc2)NC(=O)[C@H](Cc2ccc(O)cc2)NC1=O [UPAR-244] (Ac-D[dL]CR[Nle]YFPAILC-NH2; disulfide 3-12) ?
Response: ≥ 8.00

Query: What pIC50 value was documented for this compound, CCCCC(=O)N[C@H]1CSSC[C@@H](C(N)=O)NC(=O)[C@H](CCC)NC(=O)[C@H]([C@@H](C)CC)NC(=O)[C@@H]2C[C@@H](F)CN2C(=O)[C@@H]2CCCN2C(=O)[C@H](Cc2cccnc2)NC(=O)[C@H](Cc2ccc(O)cc2)NC(=O)[C@H](CCCCNC(=O)CN2CCN(CC(=O)O)CCN(CC(=O)O)CCN(CC(=O)O)CC2)NC(=O)[C@H](CCCNC(N)=O)NC1=O [UPAR-207] (Pentanoyl-C[Cit]K(DOTA)Y[3Pal]P[Pro(trans-4-F)]I[Nva]C-NH2; disulfide 1-10) ?
Response: ≥ 8.00

Query: What pIC50 value was documented for this compound, CCCC[C@@H]1NC(=O)[C@H](CCCNC(=N)N)NC(=O)[C@@H](NC(=O)[C@H](CC(C)C)NC(=O)[C@H](CC(=O)O)NC(C)=O)CSSC[C@@H](C(N)=O)NC(=O)[C@H](CC(C)C)NC(=O)[C@H]([C@@H](C)CC)NC(=O)[C@H](C)NC(=O)[C@@H]2CCCN2C(=O)[C@@H](Cc2ccccc2)NC(=O)[C@H](Cc2ccc(O)cc2)NC1=O [UPAR-230] (Ac-DLCR[Nle]Y[dF]PAILC-NH2; disulfide 3-12) ?
Response: ≤ 6.90

Query: What pIC50 value was documented for this compound, CC[C@H](C)[C@@H]1NC(=O)[C@@H](CCCNC(=N)N)NC(=O)[C@@H]2CCCN2C(=O)[C@H](Cc2ccccc2)NC(=O)[C@H](Cc2ccc(O)cc2)NC(=O)[C@H](CCC(N)=O)NC(=O)[C@H](CCCNC(N)=O)NC(=O)[C@@H](NC(=O)CCC(C)C)CSSC[C@@H](C(N)=O)NC(=O)[C@H](CC(C)C)NC1=O [UPAR-357] ({Pentanoyl(4-Me)}-C[Cit]QYFP[dR]ILC-NH2; disulfide 1-10) ?
Response: ≥ 8.00

* * *

Assignment: determine reported pIC50 for the given compounds.
Biological target: uPAR-expressing HEC-265 human endometrial adenocarcinoma cells (Homo sapiens, UniProt Q03405)
pIC50: −log10 of the molar value. *1 amine or outer side, *2 acyl side, *3 side chain or, on linkers, in order; H or OH if unused. Where a SMILES comes first, the peptide text is derived from it. Bridges are numbered along the chain shown (N, C = ends). [ ]: non-standard residue; d: D form. The star is where a group is joined. DOTA = O=C(O)CN1CCN(CC(=O)O)CCN(CC(=O)*)CCN(CC(=O)O)CC1; Hyp = O=C(O)[C@@H]1C[C@@H](O)CN1; 4Pal = N[C@@H](Cc1ccncc1)C(=O)O; Cit = NC(=O)NCCC[C@H](N)C(=O)O; Suc = O=C(CCC(=O)[*:2])[*:1]; Nva = CCC[C@H](N)C(=O)O; Pentanoyl = CCCCC(=O)*

Query: What pIC50 value was documented for this compound, CCC[C@H](NC(=O)CCC(=O)O)C(=O)N[C@H]1CSSC[C@@H](C(N)=O)NC(=O)[C@H](CCC)NC(=O)[C@H]([C@@H](C)CC)NC(=O)[C@@H]2C[C@@H](O)CN2C(=O)[C@@H]2CCCN2C(=O)[C@H](Cc2ccccc2)NC(=O)[C@H](Cc2ccc(O)cc2)NC(=O)[C@H](CCCCNC(=O)CN2CCN(CC(=O)O)CCN(CC(=O)O)CCN(CC(=O)O)CC2)NC(=O)[C@H]([C@@H](C)O)NC1=O [UPAR-297] (Suc-[Nva]CTK(DOTA)YFP[Hyp]I[Nva]C-NH2; disulfide 2-11) ?
Response: ≥ 8.00

Query: What pIC50 value was documented for this compound, CCCCC(=O)N[C@H]1CSSC[C@@H](C(N)=O)NC(=O)[C@H](CCC)NC(=O)[C@H]([C@@H](C)CC)NC(=O)[C@@H]2C[C@@H](O)CN2C(=O)[C@@H]2CCCN2C(=O)[C@H](Cc2ccccc2)NC(=O)[C@H](Cc2ccncc2)NC(=O)[C@H](CCCCNC(=O)CN2CCN(CC(=O)O)CCN(CC(=O)O)CCN(CC(=O)O)CC2)NC(=O)[C@H](CCCNC(N)=O)NC1=O [UPAR-336] (Pentanoyl-C[Cit]K(DOTA)[4Pal]FP[Hyp]I[Nva]C-NH2; disulfide 1-10) ?
Response: ≥ 8.00

* * *

Target: human uPAR (uPAR-Fc) (Homo sapiens, UniProt Q03405)
Construct: comprising amino acids Leu23-Arg303 according to UniProt entry Q03405.1; purchased R&D Systems 10378-UK-100
Sequence (Q03405 23-303): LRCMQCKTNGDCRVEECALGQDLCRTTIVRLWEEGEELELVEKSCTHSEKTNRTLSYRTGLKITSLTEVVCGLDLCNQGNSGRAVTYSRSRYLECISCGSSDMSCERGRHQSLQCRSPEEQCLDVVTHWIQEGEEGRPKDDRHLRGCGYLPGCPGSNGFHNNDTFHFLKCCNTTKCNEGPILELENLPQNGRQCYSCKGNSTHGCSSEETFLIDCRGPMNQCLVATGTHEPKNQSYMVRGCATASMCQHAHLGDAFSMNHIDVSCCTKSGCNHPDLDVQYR
Assay: Surface plasmon resonance (SPR) assay, single cycle kinetics
Assay type: binding
Conditions: pKD category for uPAR SPR activity assay; uPAR-Fc on Protein A-Chip, 25°C; read-out: pKD CAT (converted)
*1 amine or outer side, *2 acyl side, *3 side chain or, on linkers, in order; H or OH if unused. Where a SMILES comes first, the peptide text is derived from it. Bridges are numbered along the chain shown (N, C = ends). [ ]: non-standard residue; d: D form. The star is where a group is joined. DOTA = O=C(O)CN1CCN(CC(=O)O)CCN(CC(=O)*)CCN(CC(=O)O)CC1; Phe(4-NO2) = N[C@@H](Cc1ccc([N+](=O)[O-])cc1)C(=O)O; Hyp = O=C(O)[C@@H]1C[C@@H](O)CN1; hPhe = N[C@@H](CCc1ccccc1)C(=O)O; Pentanoyl(4-Me) = CC(C)CCC(=O)*; X1 = O=C(CN1CCN([*:1])CC1)[*:2]; Cit = NC(=O)NCCC[C@H](N)C(=O)O; Octanoyl = CCCCCCCC(=O)*; Nva = CCC[C@H](N)C(=O)O; Pentanoyl = CCCCC(=O)*
Measured Attribute: Kd

Query: What Kd value was documented for this compound, CCCCCCCC(=O)N[C@H]1CSSC[C@@H](C(N)=O)NC(=O)[C@H](CCC)NC(=O)[C@H]([C@@H](C)CC)NC(=O)[C@@H]2C[C@@H](O)CN2C(=O)[C@@H]2CCCN2C(=O)[C@H](Cc2ccccc2)NC(=O)[C@H](Cc2ccc(O)cc2)NC(=O)[C@H](CCC(N)=O)NC(=O)[C@H](CCCNC(=N)N)NC1=O [UPAR-193] (Octanoyl-CRQYFP[Hyp]I[Nva]C-NH2; disulfide 1-10) ?
Response: < 0.00158 µM

Query: What Kd value was documented for this compound, CCCCC(=O)N[C@H]1CSSC[C@@H](C(N)=O)NC(=O)[C@H](CCC)NC(=O)[C@H]([C@@H](C)CC)NC(=O)CN2CCN(CC2)C(=O)[C@H](Cc2ccccc2)NC(=O)[C@H](Cc2ccc(O)cc2)NC(=O)[C@H](CCC(N)=O)NC(=O)[C@H](CCCNC(=N)N)NC1=O [UPAR-271] (Pentanoyl-CRQYF[X1]I[Nva]C-NH2; disulfide 1-9) ?
Response: > 0.1 µM

Query: What Kd value was documented for this compound, CCCCC(=O)N[C@H]1CSSC[C@@H](C(N)=O)NC(=O)[C@H](CCC)NC(=O)[C@H]([C@@H](C)CC)NC(=O)[C@@H]2C[C@@H](O)CN2C(=O)[C@@H]2CCCN2C(=O)[C@H](Cc2ccccc2)NC(=O)[C@H](Cc2ccc([N+](=O)[O-])cc2)NC(=O)[C@H](CCCCNC(=O)CN2CCN(CC(=O)O)CCN(CC(=O)O)CCN(CC(=O)O)CC2)NC(=O)[C@H](CCCNC(N)=O)NC1=O [UPAR-257] (Pentanoyl-C[Cit]K(DOTA)[Phe(4-NO2)]FP[Hyp]I[Nva]C-NH2; disulfide 1-10) ?
Response: < 0.00158 µM

Query: What Kd value was documented for this compound, CC[C@H](C)[C@@H]1NC(=O)[C@@H](C)NC(=O)[C@@H]2CCCN2C(=O)[C@H](CCc2ccccc2)NC(=O)[C@H](Cc2ccc(O)cc2)NC(=O)[C@H](CCC(N)=O)NC(=O)[C@H](CCCNC(N)=O)NC(=O)[C@@H](NC(=O)CCC(C)C)CSSC[C@@H](C(N)=O)NC(=O)[C@H](CC(C)C)NC1=O [UPAR-180] ({Pentanoyl(4-Me)}-C[Cit]QY[hPhe]P[dA]ILC-NH2; disulfide 1-10) ?
Response: > 0.1 µM

Query: What Kd value was documented for this compound, CCCCC(=O)N[C@H]1CSSC[C@@H](C(N)=O)NC(=O)[C@H](CCC)NC(=O)[C@H]([C@@H](C)CC)NC(=O)[C@@H]2C[C@@H](O)CN2C(=O)[C@H](CCCCN)NC(=O)[C@H](Cc2ccccc2)NC(=O)[C@H](Cc2ccc(O)cc2)NC(=O)[C@H](CCC(N)=O)NC(=O)[C@H](CCCNC(=N)N)NC1=O [UPAR-298] (Pentanoyl-CRQYFK[Hyp]I[Nva]C-NH2; disulfide 1-10) ?
Response: 0.01 to 0.1 µM
